Overview of recorded pIC50 for various compounds
- SYSTEM UNDER TEST: GSK3b (GST-full length GSK3b) (Homo sapiens (Human), UniProt P49841)
- Sequence (P49841 whole entry): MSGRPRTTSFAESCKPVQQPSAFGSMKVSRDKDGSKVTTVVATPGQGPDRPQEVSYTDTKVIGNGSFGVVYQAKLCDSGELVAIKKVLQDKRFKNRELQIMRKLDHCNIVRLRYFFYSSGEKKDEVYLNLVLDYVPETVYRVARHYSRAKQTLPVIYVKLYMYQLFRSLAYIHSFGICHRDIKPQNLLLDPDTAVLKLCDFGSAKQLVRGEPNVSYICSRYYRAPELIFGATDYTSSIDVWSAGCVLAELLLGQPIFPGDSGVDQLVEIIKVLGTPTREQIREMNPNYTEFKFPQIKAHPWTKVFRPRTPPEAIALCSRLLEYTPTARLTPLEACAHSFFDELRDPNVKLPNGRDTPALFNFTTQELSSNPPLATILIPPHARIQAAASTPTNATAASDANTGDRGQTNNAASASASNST
- METHOD DESCRIPTION: GSK3b TR-FRET kinase assay
- Type: biochemical
- CONDITION PARAMETERS: 1 nM GSK3b, 2 μM ATP, 30 minute preincubation; read-out: GSK3-B TR-FRET BIOCHEMICAL (TR-FRET); IC50
pIC50: −log10 of the molar value.

Worked examples follow.
Recorded pIC50 of "CC[C@]1(c2cccc(-c3cnn(C)c3C)c2)C2=C(CC(C)(C)NC2=O)Nc2n[nH]cc21" , please. 6.00 to 7.00

Recorded pIC50 of CC1(C)CC(=O)C2=C(C1)Nc1n[nH]cc1C21COC2(CN(S(=O)(=O)c3ccccc3)C2)C1 (centres unmarked) , please. 5.30 to 6.00

Recorded pIC50 of CCC1(c2cccc(C(F)(F)F)c2)C2=C(CC(C)(C)N(C)C2=O)Nc2n[nH]cc21 (centres unmarked) [Compound 823130] , please. 6.00 to 7.00

Recorded pIC50 of "CC1(C)CC(=O)C2=C(C1)Nc1n[nH]cc1[C@]21COC2(CN(C(=O)C3(F)CCC3)C2)C1" , please. ≥ 7.00

Recorded pIC50 of CCC1(c2cccc(C(F)(F)F)c2)C2=C(CC(c3ccccc3)NC2=O)Nc2n[nH]cc21 (centres unmarked) [Compound 945363] , please. < 5.30

Recorded pIC50 of CCC1(c2cccc(Br)c2)C2=C(CC(C)(C)NC2=O)Nc2n[nH]cc21 (centres unmarked) , please. 6.00 to 7.00

More entries:
Recorded pIC50 of Cc1ccc(C)c(C(=O)N2CC3(C2)CC2(CO3)C3=C(CC(C)(C)CC3=O)Nc3n[nH]cc32)c1 (centres unmarked) , please. 6.00 to 7.00

Recorded pIC50 of CC1(C)CC(=O)C2=C(C1)Nc1n[nH]cc1C21COC2(CN(C(=O)C3CCCC3)C2)C1 (centres unmarked) [Compound 943958] , please. 5.30 to 6.00

Recorded pIC50 of "CC[C@]1(c2cccc(C(F)(F)F)c2)C2=C(CCN(C(C)C)C2=O)Nc2n[nH]cc21" , please. < 5.30

Recorded pIC50 of CC1(C)CC(=O)C2=C(C1)Nc1n[nH]cc1C21COC2(CN(C(=O)OC(C)(C)C)C2)C1 (centres unmarked) , please. 5.30 to 6.00

Recorded pIC50 of "COc1cccc(S(=O)(=O)N2CC[C@]3(C2)C2=C(CC(C)(C)CC2=O)Nc2n[nH]cc23)c1" , please. ≥ 7.00

Recorded pIC50 of CC(C)CC(=O)N1CC2(C1)CC1(CO2)C2=C(CC(C)(C)CC2=O)Nc2n[nH]cc21 (centres unmarked) , please. ≥ 7.00

Recorded pIC50 of "CC[C@]1(c2cccc(-c3cc(C)nn3C)c2)C2=C(CC(C)(C)NC2=O)Nc2n[nH]cc21" , please. < 5.30

Recorded pIC50 of "CCc1ncc(S(=O)(=O)N2CCC3(CC2)C2=C(CC(C)(C)NC2=O)Nc2n[nH]cc23)s1" , please. ≥ 7.00

Recorded pIC50 of "CC(=O)N1CC[C@]2(C1)C[C@]1(CO2)C2=C(CC(C)(C)CC2=O)Nc2n[nH]cc21" , please. 6.00 to 7.00

Recorded pIC50 of CCC1(c2cccc(-c3c(F)cncc3OC)c2)C2=C(CN(Cc3ccccc3)C2=O)Nc2n[nH]cc21 (centres unmarked) , please. 6.00 to 7.00

Recorded pIC50 of CCC1(c2cccc(Br)c2)C2=C(CC(C)NC2=O)Nc2n[nH]cc21 (centres unmarked) , please. 5.30 to 6.00

Hey, just so you know, these numbers are from patent US20250313563A1.
